# Tested on: Escherichia coli TOP10;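 note: peptides expressed intracellularly from a pBAD plasmid library in pooled LB shake-flask culture, induced with 0.3% L-arabinose, DNA abundance read by NGS, three biological replicates, DESeq2 with apeglm shrinkage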
# Assay text: shrunken log2 fold change of peptide-encoding DNA abundance (4.5 h post-induction vs induction); higher = less antimicrobial activity (less host growth inhibition)
# Assay conditions: time post-induction: 4.5 h; library: site-saturation at positions 5, 18, 19, 20
Result type: shrunken log2 fold change

Input `RRIRNRPPRLPRPRPRPGAEPRP` , output reported shrunken log2 fold change.
0.374

Input `RRIRWRPPRLPRPRPRPSIIPRP` , output reported shrunken log2 fold change.
-0.31

Input `RRIRLRPPRLPRPRPRPQCPPRP` , output reported shrunken log2 fold change.
-0.266

Input `RRIRERPPRLPRPRPRPWRGPRP` , output reported shrunken log2 fold change.
0.166

Input `RRIRPRPPRLPRPRPRPWNMPRP` , output reported shrunken log2 fold change.
-0.189

Input `RRIRYRPPRLPRPRPRPSPRPRP` , output reported shrunken log2 fold change.
0.062

Input `RRIRTRPPRLPRPRPRPWPLPRP` , output reported shrunken log2 fold change.
0.0506

Input `RRIRNRPPRLPRPRPRPTEFPRP` , output reported shrunken log2 fold change.
-0.043
